- Assayed Target: human thymidylate synthase (TS) (Homo sapiens)
- Construct: screening in live, non-engineered cells expressing thymidylate synthase; endogenous in cells; host or cells: K562 (human myelogenous leukemia) cells
- Assay Explanation: CETSA primary screen / single-concentration retest, AlphaScreen, live K562 cells
- Format: cell-based
- Applied Conditions: K562, 2 h; read-out: % stabilization in screen
Please enter T where % stabilization in screen at 50 µM is greater than or equal to 30%, and F where it is lower.

**Query** Please tell me: is the molecule Cc1ccc(-c2cc(C(F)(F)F)nn2-c2ccc(S(N)(=O)=O)cc2)cc1 [CBK041793, Celecoxib, reference compound] at or over 30% in terms of % stabilization in screen at 50 µM?
**Result** T

**Query** Please tell me: is the molecule Cc1ccc2c(c1)c1c3n2CCNC3CCC1 (centres unmarked) [CBK200931G, Pirlindole, reference compound] at or over 30% in terms of % stabilization in screen at 50 µM?
**Result** F

**Query** Please tell me: is the molecule CCc1nc(N)nc(N)c1-c1ccc(Cl)cc1 [CBK041886, Pyrimethamine, reference compound] at or over 30% in terms of % stabilization in screen at 50 µM?
**Result** T

**Query** Please tell me: is the molecule Nc1ncn([C@@H]2O[C@H](CO)[C@@H](O)[C@H]2O)c(=O)n1 [CBK200768, 5-Azacytidine, reference compound] at or over 30% in terms of % stabilization in screen at 50 µM?
**Result** T

**Query** Please tell me: is the molecule Nc1ncnc2c1nc(Br)n2[C@@H]1O[C@H](CO)[C@@H](O)[C@H]1O at or over 30% in terms of % stabilization in screen at 50 µM?
**Result** F

---

- Assayed Target: human thymidylate synthase (TS) (Homo sapiens, UniProt P04818)
- Construct: screening in live, non-engineered cells expressing thymidylate synthase; endogenous in cells; host or cells: K562 (human myelogenous leukemia) cells
- Sequence (P04818 2-313 limits assumed): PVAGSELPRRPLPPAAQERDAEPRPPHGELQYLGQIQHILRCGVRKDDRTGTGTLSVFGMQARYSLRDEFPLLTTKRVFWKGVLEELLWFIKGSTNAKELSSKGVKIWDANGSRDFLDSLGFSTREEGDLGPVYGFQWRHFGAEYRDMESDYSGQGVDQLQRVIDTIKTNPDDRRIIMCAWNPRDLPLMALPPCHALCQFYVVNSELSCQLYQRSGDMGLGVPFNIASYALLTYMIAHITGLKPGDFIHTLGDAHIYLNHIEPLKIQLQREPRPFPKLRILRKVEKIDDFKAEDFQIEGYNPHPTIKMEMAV
- Assay Explanation: CETSA primary screen / single-concentration retest, AlphaScreen, live K562 cells
- Type: cell-based
- Applied Conditions: 50 μM compound, 2 h preincubation, 50 °C; 0% = DMSO, 100% = 100 nM raltitrexed
Assign % stabilization in screen to each entry below.
Report only the number, with the unit % understood.

**Query** Fill in the recorded % stabilization in screen for this molecule, with human thymidylate synthase (TS) (Homo sapiens, UniProt P04818) as test system: CCOc1nc(=O)c(C)cn1C1CC(O)C(CO)O1 (stereo not drawn) [CBK201334]
**Result** -1

**Query** Fill in the recorded % stabilization in screen for this molecule, with human thymidylate synthase (TS) (Homo sapiens, UniProt P04818) as test system: Cc1cn(C2CC(O)C(C3N(c4ccccc4)CCN3c3ccccc3)O2)c(=O)[nH]c1=O (stereo not drawn) [CBK201232]
**Result** -1

**Query** Fill in the recorded % stabilization in screen for this molecule, with human thymidylate synthase (TS) (Homo sapiens, UniProt P04818) as test system: O=c1[nH]c(=O)n([C@H]2C[C@@H](O)[C@@H](CO)O2)cc1CO [CBK201332]
**Result** 9

**Query** Fill in the recorded % stabilization in screen for this molecule, with human thymidylate synthase (TS) (Homo sapiens, UniProt P04818) as test system: Cc1cc(C)c(Oc2nc(=O)n([C@H]3C[C@@H](O)[C@@H](CO)O3)cc2F)c(C)c1 [CBK201184]
**Result** 66

**Query** Fill in the recorded % stabilization in screen for this molecule, with human thymidylate synthase (TS) (Homo sapiens, UniProt P04818) as test system: O=c1[nH]c(=O)n([C@H]2C[C@@H](O)[C@@H](CO)O2)cc1CCO [CBK201239]
**Result** 17

**Query** Fill in the recorded % stabilization in screen for this molecule, with human thymidylate synthase (TS) (Homo sapiens, UniProt P04818) as test system: Nc1nc(=O)n([C@@H]2O[C@H](CO)[C@H](O)C2O)cc1I (stereo partly drawn) [CBK201306]
**Result** -1

**Query** Fill in the recorded % stabilization in screen for this molecule, with human thymidylate synthase (TS) (Homo sapiens, UniProt P04818) as test system: Cc1cn2c(nc1=O)OC[C@H]1O[C@@H]2C[C@H]1O [CBK201280]
**Result** 0

**Query** Fill in the recorded % stabilization in screen for this molecule, with human thymidylate synthase (TS) (Homo sapiens, UniProt P04818) as test system: Cc1cn(C2CC(O)C(CNC(=O)C(F)(F)F)O2)c(=O)[nH]c1=O (stereo not drawn) [CBK201200]
**Result** 0

**Query** Fill in the recorded % stabilization in screen for this molecule, with human thymidylate synthase (TS) (Homo sapiens, UniProt P04818) as test system: O=C(/C=C/c1cn(C2OC(CO)C(O)C2O)c(=O)[nH]c1=O)NCCCCCCNC(=O)C(F)(F)F (stereo not drawn) [CBK201231]
**Result** -1

---

Assign % stabilization in screen to each entry below.
- Assayed Target: human thymidylate synthase (TS) (Homo sapiens)
- Construct: screening in live, non-engineered cells expressing thymidylate synthase; endogenous in cells; host or cells: K562 (human myelogenous leukemia) cells
- Assay Explanation: CETSA primary screen / single-concentration retest, AlphaScreen, live K562 cells
- Format: cell-based
- Applied Conditions: 50 μM compound, 2 h preincubation, 50 °C; 0% = DMSO, 100% = 100 nM raltitrexed
Report only the number, with the unit % understood.

**Query** Fill in the recorded % stabilization in screen for this molecule, with human thymidylate synthase (TS) (Homo sapiens) as test system: COC1C(O)C(CO)OC1n1cc(C)c(=O)[nH]c1=O (centres unmarked)
**Result** -1

**Query** Fill in the recorded % stabilization in screen for this molecule, with human thymidylate synthase (TS) (Homo sapiens) as test system: Cc1cn([C@H]2C[C@@H](O)[C@@H](CI)O2)c(=O)[nH]c1=O
**Result** -1

**Query** Fill in the recorded % stabilization in screen for this molecule, with human thymidylate synthase (TS) (Homo sapiens) as test system: O=C(O)/C=C/c1cn([C@H]2C[C@@H](O)[C@@H](CO)O2)c(=O)[nH]c1=O
**Result** 17

**Query** Fill in the recorded % stabilization in screen for this molecule, with human thymidylate synthase (TS) (Homo sapiens) as test system: COC1C(O)C(CO)OC1n1cc(F)c(=O)[nH]c1=O (centres unmarked)
**Result** 61

**Query** Fill in the recorded % stabilization in screen for this molecule, with human thymidylate synthase (TS) (Homo sapiens) as test system: O=C(/C=C/c1cn([C@H]2C[C@@H](O)[C@@H](CO)O2)c(=O)[nH]c1=O)ON1C(=O)CCC1=O
**Result** 16

**Query** Fill in the recorded % stabilization in screen for this molecule, with human thymidylate synthase (TS) (Homo sapiens) as test system: O=c1ccn([C@H]2C[C@@H](O)[C@@H](CO)O2)c(=O)[nH]1
**Result** -1

**Query** Fill in the recorded % stabilization in screen for this molecule, with human thymidylate synthase (TS) (Homo sapiens) as test system: O=c1[nH]c(=O)n([C@@H]2O[C@H](CO)[C@H](O)C2O)cc1Br (some centres unmarked)
**Result** -1

**Query** Fill in the recorded % stabilization in screen for this molecule, with human thymidylate synthase (TS) (Homo sapiens) as test system: Nc1nc(=O)n([C@H]2C[C@@H](O)[C@@H](CO)O2)cc1I
**Result** 7

**Query** Fill in the recorded % stabilization in screen for this molecule, with human thymidylate synthase (TS) (Homo sapiens) as test system: Cc1cn([C@H]2C[C@@H](O)[C@@H](CN)O2)c(=O)[nH]c1=O
**Result** -1

**Query** Fill in the recorded % stabilization in screen for this molecule, with human thymidylate synthase (TS) (Homo sapiens) as test system: O=C(O)/C=C/c1cn([C@@H]2O[C@H](CO)[C@H](O)C2O)c(=O)[nH]c1=O (some centres unmarked)
**Result** -1

**Query** Fill in the recorded % stabilization in screen for this molecule, with human thymidylate synthase (TS) (Homo sapiens) as test system: O=C(/C=C/c1cn(C2CC(O)C(CO)O2)c(=O)[nH]c1=O)NCCNC(=O)C(F)(F)F (centres unmarked)
**Result** 9

**Query** Fill in the recorded % stabilization in screen for this molecule, with human thymidylate synthase (TS) (Homo sapiens) as test system: O=C(/C=C/c1cn(C2CC(O)C(CO)O2)c(=O)[nH]c1=O)NCCCCCCNC(=O)C(F)(F)F (centres unmarked)
**Result** 15

**Query** Fill in the recorded % stabilization in screen for this molecule, with human thymidylate synthase (TS) (Homo sapiens) as test system: Cc1cc2cn([C@H]3C[C@@H](O)[C@@H](CO)O3)c(=O)nc2o1
**Result** 20

**Query** Fill in the recorded % stabilization in screen for this molecule, with human thymidylate synthase (TS) (Homo sapiens) as test system: COC(=O)/C=C/c1cn(C2OC(CO)C(O)C2O)c(=O)[nH]c1=O (centres unmarked)
**Result** -1

**Query** Fill in the recorded % stabilization in screen for this molecule, with human thymidylate synthase (TS) (Homo sapiens) as test system: O=C(NC/C=C/c1cn(C2OC(CO)C(O)C2O)c(=O)[nH]c1=O)C(F)(F)F (centres unmarked)
**Result** -1

**Query** Fill in the recorded % stabilization in screen for this molecule, with human thymidylate synthase (TS) (Homo sapiens) as test system: CC#Cc1cn([C@H]2C[C@@H](O)[C@@H](CO)O2)c(=O)[nH]c1=O
**Result** 90

**Query** Fill in the recorded % stabilization in screen for this molecule, with human thymidylate synthase (TS) (Homo sapiens) as test system: Cc1cn(C2CC(O)C(CO)O2)c(=O)[nH]c1=O (centres unmarked)
**Result** -1

**Query** Fill in the recorded % stabilization in screen for this molecule, with human thymidylate synthase (TS) (Homo sapiens) as test system: C#Cc1cn([C@@H]2O[C@H](CO)[C@H](O)C2O)c(=O)[nH]c1=O (some centres unmarked)
**Result** 20

**Query** Fill in the recorded % stabilization in screen for this molecule, with human thymidylate synthase (TS) (Homo sapiens) as test system: Cc1cn([C@H]2C[C@@H](O)[C@@H](CO)O2)c(=O)nc1N.Cl
**Result** 4

**Query** Fill in the recorded % stabilization in screen for this molecule, with human thymidylate synthase (TS) (Homo sapiens) as test system: Cn1c(=O)ccn([C@@H]2O[C@H](CO)[C@H](O)C2O)c1=O (some centres unmarked)
**Result** -1

**Query** Fill in the recorded % stabilization in screen for this molecule, with human thymidylate synthase (TS) (Homo sapiens) as test system: Cc1cn([C@H]2C[C@@H](O)[C@@H](CO)O2)c(=O)n(CCC#N)c1=O
**Result** -1

**Query** Fill in the recorded % stabilization in screen for this molecule, with human thymidylate synthase (TS) (Homo sapiens) as test system: Nc1cccc(-c2cn([C@H]3C[C@@H](O)[C@@H](CO)O3)c(=O)[nH]c2=O)c1
**Result** 16

**Query** Fill in the recorded % stabilization in screen for this molecule, with human thymidylate synthase (TS) (Homo sapiens) as test system: O=C(NC/C=C/c1cn(C2CC(O)C(CO)O2)c(=O)[nH]c1=O)C(F)(F)F (centres unmarked)
**Result** 17

Source of measurements: paper PMC4820820
